- Test system: Malme-3M
- EXPERIMENT: NCI tumour cell line growth inhibition, 48 h
The source made the active and inactive calls. Cut-off read from the data, not from the text of the source: active = GI50 up to about 1.1 µM and inactive = higher.
For each entry below, report its GI50 value.

// query GI50 value for entry COc1ccc(C2NC(=O)Nc3c2c(=O)oc2c3ccc3ccccc32)cc1 (centres undefined)
68.9 µM (inactive)

// query GI50 value for entry `NNC(=S)N/N=C/C(=C/Nc1ccccc1)[N+](=O)[O-]`
> 100 µM (inactive)

// query GI50 value for entry COc1ccc(C2Oc3cc(OC)c(OC)cc3C2CCl)cc1OC (centres undefined)
> 100 µM (inactive)

// query GI50 value for entry C/C(=N\N)C(CN(C)C)C(c1ccccc1)c1c(O)c2ccccc2oc1=O (centres undefined)
> 94.2 µM (inactive)

====

- Test system: U-251
- EXPERIMENT: NCI tumour cell line growth inhibition, 48 h
Active and inactive are the calls of the source. No stated cut-off is given here; in the data, active = GI50 up to about 1.1 µM and inactive = higher.
Choose one outcome from this list and give only that: 1 for active, 0 for inactive

Assay outcome for `CCN(CC)C(=O)CCn1cc(F)c(=O)[nH]c1=O` : what was it?
0

Assay outcome for `CC(=O)Oc1ccc2cc(Oc3cc(Cl)c(Cl)cc3Cl)c(=O)oc2c1` : what was it?
0

Assay outcome for `O=C1CC[C@@H](S(=O)(=O)c2ccccc2)[C@H](/C=C/c2ccccc2)O1` : what was it?
0

Assay outcome for Nc1nc(N)c2nc(CNc3ccc(C(=O)NC(CCCCNC(=O)c4ccccc4C(=O)O)C(=O)O)cc3)cnc2n1 (stereo unspecified) : what was it?
1

Assay outcome for `COc1ccc(/C=N/n2cnc3c(sc(=S)n3-c3ccccc3)c2=O)cc1` : what was it?
0

Assay outcome for `CC(=O)Nc1cc2cc(N)ccc2oc1=O` : what was it?
0

Assay outcome for CC1(C)C(CC(=O)O)CCCC1CC(=O)O (stereo unspecified) : what was it?
0

Assay outcome for `O=C(O)c1ccccc1/N=C/c1ccc(N(CCCl)CCCl)cc1` : what was it?
0

Assay outcome for O=C1CCC(CCc2nc3ccccc3[nH]2)(c2ccccc2)C(=O)N1 (stereo unspecified) : what was it?
0

Assay outcome for `O=C1NCCCNCCCNCCCNC(=O)c2cccc1n2` : what was it?
0

Assay outcome for `Nc1nnc(NC(=O)C2=NS(=O)(=O)c3cc(S(N)(=O)=O)c(Cl)cc3N2)[nH]1` : what was it?
0

====

- Test system: MDA-MB-435
- EXPERIMENT: NCI tumour cell line growth inhibition, 48 h
The source made the active and inactive calls. Cut-off read from the data, not from the text of the source: active = GI50 up to about 1.1 µM and inactive = higher.
QUANTITY: GI50

// query GI50 value for entry `CO[C@H]1/C=C/O[C@@]2(C)Oc3c(C)c(O)c4c(O)c(c(/C=N/N5CCN(C)CC5)c(O)c4c3C2=O)NC(=O)/C(C)=C\C=C\[C@H](C)[C@H](O)[C@@H](C)[C@@H](O)[C@@H](C)[C@H](OC(C)=O)[C@@H]1C`
> 100 µM (inactive)

// query GI50 value for entry Cc1cc2nc(O)c(C(C)C(=O)c3ccc(Cl)cc3)nc2cc1C (stereo not given)
20.1 µM (inactive)

// query GI50 value for entry `CC1=CC(=O)N(n2c(Cc3ccccc3)n[nH]c2=O)C1=O`
> 100 µM (inactive)

// query GI50 value for entry `COc1ccc2c(c1)-c1c(c3cc(OC)ccc3n1CCN(C)C)CC2`
12.6 µM (inactive)

// query GI50 value for entry `CN(C)c1n/c(=N/Cc2ccccc2)ss1`
> 10 µM (inactive)
